System: human ovarian cancer cell line SKOV3
assay: Action on SKOV3 cell-2: 3D (deacylated gellan gum) and 2D culture, EGF medium, ATP assay (Experimental Example 3)
stated_conditions: Homo sapiens, SK-OV-3, 96 h, read-out: relative value of RLU (number of viable cells), 2D single layer culture; 20 μM; 4 days; compound non-addition = 100%
parameter: viability at 20 µM (%)

CC/C(=N\NC(=O)CNc1cccc(O)c1)c1ccc(O)c(C)c1O = 83
CC/C(=N\NC(=O)OCc1cccc(O)c1)c1ccc(O)c(C)c1O = 84
CC/C(=N\NC(=O)NCc1ccccc1)c1ccc(O)c(C)c1O = 92
CC/C(=N\NC(=O)C(C)Nc1ccccc1)c1ccc(O)c(C)c1O (centres unmarked) = 74
CC/C(=N\NC(=O)NCc1cccc(O)c1)c1ccc(O)c(C)c1O = 102

* * *

Listing of entries alongside the reported viability at 10 µM.
Tested on: human ovarian cancer cell line SKOV3
assay: Action on SKOV3 cell-2: 3D (deacylated gellan gum) and 2D culture, EGF medium, ATP assay (Experimental Example 3)
stated_conditions: Homo sapiens, SK-OV-3, 96 h, read-out: relative value of RLU (number of viable cells), 2D single layer culture; 10 μM; 4 days; compound non-addition = 100%
parameter: viability at 10 µM (%)

CC/C(=N\NC(=O)NCc1cccc(O)c1)c1ccc(O)c(C)c1O [k-1:J-1] = 97
CC/C(=N\NC(=O)C(C)Nc1ccccc1)c1ccc(O)c(C)c1O (centres unmarked) [k-1:B-1] = 97
CC/C(=N\NC(=O)OCc1cccc(O)c1)c1ccc(O)c(C)c1O [k-1:N-1] = 89
CC/C(=N\NC(=O)CNc1cccc(O)c1)c1ccc(O)c(C)c1O [k-1:D-1] = 98
CC/C(=N\NC(=O)NCc1ccccc1)c1ccc(O)c(C)c1O [k-1:I-1] = 94

* * *

System: human ovarian cancer cell line SKOV3
assay: Action on SKOV3 cell-2: 3D (deacylated gellan gum) and 2D culture, EGF medium, ATP assay (Experimental Example 3)
stated_conditions: Homo sapiens, SK-OV-3, 96 h, read-out: relative value of RLU (number of viable cells), 3D culture (deacylated gellan gum); 5 μM; 4 days; compound non-addition = 100%
parameter: viability at 5 µM (%)

CC/C(=N\NC(=O)NCc1cccc(O)c1)c1ccc(O)c(C)c1O [k-1:J-1] = 170
CC/C(=N\NC(=O)C(C)Nc1ccccc1)c1ccc(O)c(C)c1O (centres unmarked) [k-1:B-1] = 181
CC/C(=N\NC(=O)OCc1cccc(O)c1)c1ccc(O)c(C)c1O [k-1:N-1] = 134
CC/C(=N\NC(=O)CNc1cccc(O)c1)c1ccc(O)c(C)c1O [k-1:D-1] = 174
CC/C(=N\NC(=O)NCc1ccccc1)c1ccc(O)c(C)c1O [k-1:I-1] = 111

* * *

System: SKOV3 cells (human ovarian cancer-derived cell line)
assay: Cell proliferation activity in three-dimensional medium FCeM, ATP assay (Experimental Example 1)
Type: cell-based
stated_conditions: SKOV3, 3D medium FCeM, 5 μM, 4 days; DMSO control = 100%; average of two tests
Listing of entries alongside the reported proliferation rate (%) (5 μM).
parameter: proliferation rate (%) (5 μM)

CCCCCCCC/N=C(\CC)c1ccc(O)c(C)c1O = 118.1
CC/C(=N\C(=O)Nc1ccccc1)c1ccc(O)c(C)c1O = 113
CCOC(=O)C/N=C(\CC)c1ccc(O)c(C)c1O = 119.1
CC/C(=N\CC(=O)OCc1ccccc1)c1ccc(O)c(C)c1O = 118.8
CC/C(=N\NC(=O)Nc1ccccc1)c1ccc(O)c(C)c1O = 127.9
